Origin of measurements: patent US10202374B2

Overview of reported % Inhibition of PI3K-α at 0.5 μM across a group of compounds:
Molecular target: PI3K-α (Homo sapiens)
Test: PI3K-α assay (ADP-Glo)
Type: biochemical
Details: 0.5 μM, preliminary screening

[
  {
    "COMPOUND_SMILES": "N#CCc1ccc(Nc2ncnc3ccc(-c4cccc(O)c4)cc23)cc1",
    "TESTED_TARGET": "PI3K-α (Homo sapiens)",
    "% Inhibition of PI3K-α at 0.5 μM (%)": 69.9
  },
  {
    "COMPOUND_SMILES": "N#CCc1ccc(Nc2ncnc3ccc(-c4ccncc4)cc23)cc1",
    "TESTED_TARGET": "PI3K-α (Homo sapiens)",
    "% Inhibition of PI3K-α at 0.5 μM (%)": 45.6
  },
  {
    "COMPOUND_SMILES": "N#CCc1ccc(Nc2ncnc3ccc(-c4ccc5c(c4)OCO5)cc23)cc1",
    "TESTED_TARGET": "PI3K-α (Homo sapiens)",
    "% Inhibition of PI3K-α at 0.5 μM (%)": 48.6
  },
  {
    "COMPOUND_SMILES": "N#CCc1ccc(Nc2ncnc3ccc(-c4ccc5[nH]ccc5c4)cc23)cc1",
    "TESTED_TARGET": "PI3K-α (Homo sapiens)",
    "% Inhibition of PI3K-α at 0.5 μM (%)": 47.5
  },
  {
    "COMPOUND_SMILES": "N#CCc1ccc(Nc2ncnc3ccc(-c4cncc5ccccc45)cc23)cc1",
    "TESTED_TARGET": "PI3K-α (Homo sapiens)",
    "% Inhibition of PI3K-α at 0.5 μM (%)": 48.8
  }
]

---

Target: PI3K-α (Homo sapiens, UniProt P42336)
Sequence (P42336 whole entry): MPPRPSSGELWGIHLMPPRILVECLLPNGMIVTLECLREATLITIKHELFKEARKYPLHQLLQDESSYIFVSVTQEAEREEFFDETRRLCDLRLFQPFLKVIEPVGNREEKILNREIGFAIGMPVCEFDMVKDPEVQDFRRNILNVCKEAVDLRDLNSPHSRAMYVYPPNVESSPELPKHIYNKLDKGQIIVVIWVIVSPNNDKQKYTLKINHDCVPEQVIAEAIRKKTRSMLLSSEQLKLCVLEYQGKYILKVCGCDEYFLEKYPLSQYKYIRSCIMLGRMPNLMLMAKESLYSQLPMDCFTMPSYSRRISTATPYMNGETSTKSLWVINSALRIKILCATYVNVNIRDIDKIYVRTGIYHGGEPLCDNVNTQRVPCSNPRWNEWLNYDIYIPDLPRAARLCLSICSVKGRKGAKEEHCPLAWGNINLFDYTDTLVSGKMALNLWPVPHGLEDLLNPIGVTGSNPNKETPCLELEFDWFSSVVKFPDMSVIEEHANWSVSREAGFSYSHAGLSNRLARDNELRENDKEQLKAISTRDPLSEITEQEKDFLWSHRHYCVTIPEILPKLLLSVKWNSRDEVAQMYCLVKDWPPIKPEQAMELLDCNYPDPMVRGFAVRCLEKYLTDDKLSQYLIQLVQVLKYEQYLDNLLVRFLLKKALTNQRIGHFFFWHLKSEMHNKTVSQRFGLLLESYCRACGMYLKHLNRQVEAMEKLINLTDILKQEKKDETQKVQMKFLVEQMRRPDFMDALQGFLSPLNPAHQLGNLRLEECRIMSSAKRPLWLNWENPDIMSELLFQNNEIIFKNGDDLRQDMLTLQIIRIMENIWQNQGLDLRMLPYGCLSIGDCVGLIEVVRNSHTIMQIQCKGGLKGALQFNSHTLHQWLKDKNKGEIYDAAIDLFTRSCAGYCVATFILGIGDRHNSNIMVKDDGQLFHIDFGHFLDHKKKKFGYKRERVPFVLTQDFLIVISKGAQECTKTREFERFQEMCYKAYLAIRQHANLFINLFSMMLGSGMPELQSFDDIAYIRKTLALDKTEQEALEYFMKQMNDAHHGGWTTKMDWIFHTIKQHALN
Sequence (P27986 whole entry partner): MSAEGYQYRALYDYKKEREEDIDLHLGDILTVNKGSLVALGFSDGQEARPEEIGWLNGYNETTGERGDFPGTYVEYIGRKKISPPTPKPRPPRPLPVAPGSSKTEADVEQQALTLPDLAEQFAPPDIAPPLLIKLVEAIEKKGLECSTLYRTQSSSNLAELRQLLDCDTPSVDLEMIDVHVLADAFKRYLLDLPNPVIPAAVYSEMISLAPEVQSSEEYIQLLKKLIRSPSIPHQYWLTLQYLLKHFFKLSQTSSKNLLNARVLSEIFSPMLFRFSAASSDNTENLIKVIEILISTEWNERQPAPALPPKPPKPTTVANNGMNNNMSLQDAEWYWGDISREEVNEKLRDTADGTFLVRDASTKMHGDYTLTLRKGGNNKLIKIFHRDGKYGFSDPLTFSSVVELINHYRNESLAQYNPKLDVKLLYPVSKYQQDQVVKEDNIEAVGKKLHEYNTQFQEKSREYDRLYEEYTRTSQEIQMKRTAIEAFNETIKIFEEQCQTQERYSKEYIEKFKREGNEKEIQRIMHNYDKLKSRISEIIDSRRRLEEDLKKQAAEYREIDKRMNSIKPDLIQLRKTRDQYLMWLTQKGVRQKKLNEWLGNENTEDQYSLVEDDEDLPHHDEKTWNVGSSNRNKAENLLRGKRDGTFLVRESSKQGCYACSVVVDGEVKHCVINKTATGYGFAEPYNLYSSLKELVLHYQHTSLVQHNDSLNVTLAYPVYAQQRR
Assay: PI3K-α assay (ADP-Glo)
Assay type: biochemical
Settings: 0.5 μM, preliminary screening
OBSERVATION_TYPE: inhibition at 0.5 µM (%)

[
  {
    "COMPOUND": "N#CCc1ccc(Nc2ncnc3ccc(-c4cc5ccccc5o4)cc23)cc1 [Compound 22]",
    "OBSERVATION_TYPE": "inhibition at 0.5 µM",
    "VALUE_QUALIFIER": "=",
    "REPORTED_RESULT": 29.8
  },
  {
    "COMPOUND": "N#CCc1ccc(Nc2ncnc3ccc(-c4cc5ccccc5s4)cc23)cc1 [Compound 23]",
    "OBSERVATION_TYPE": "inhibition at 0.5 µM",
    "VALUE_QUALIFIER": "=",
    "REPORTED_RESULT": 2.7
  },
  {
    "COMPOUND": "N#CCc1ccc(Nc2ncnc3ccc(-c4cncc5ccccc45)cc23)cc1 [Compound 29]",
    "OBSERVATION_TYPE": "inhibition at 0.5 µM",
    "VALUE_QUALIFIER": ">",
    "REPORTED_RESULT": 40
  },
  {
    "COMPOUND": "N#CCc1ccc(Nc2ncnc3ccc(-c4ccc(OCc5ccc(F)cc5)cc4)cc23)cc1 [Compound 14]",
    "OBSERVATION_TYPE": "inhibition at 0.5 µM",
    "VALUE_QUALIFIER": "=",
    "REPORTED_RESULT": 11
  },
  {
    "COMPOUND": "CCOc1ccc(-c2ccc(-c3ccc4ncnc(Nc5ccc(CC#N)cc5)c4c3)cc2)cc1 [Compound 17]",
    "OBSERVATION_TYPE": "inhibition at 0.5 µM",
    "VALUE_QUALIFIER": "<",
    "REPORTED_RESULT": 0
  },
  {
    "COMPOUND": "CC(=O)c1ccc(-c2ccc3ncnc(Nc4ccc(CC#N)cc4)c3c2)cc1 [Compound 9]",
    "OBSERVATION_TYPE": "inhibition at 0.5 µM",
    "VALUE_QUALIFIER": "=",
    "REPORTED_RESULT": 44
  },
  {
    "COMPOUND": "Cc1ccccc1-c1ccc2ncnc(Nc3ccc(CC#N)cc3)c2c1 [Compound 12]",
    "OBSERVATION_TYPE": "inhibition at 0.5 µM",
    "VALUE_QUALIFIER": "=",
    "REPORTED_RESULT": 4.1
  },
  {
    "COMPOUND": "N#CCc1ccc(Nc2ncnc3ccc(-c4cccc5c4oc4ccccc45)cc23)cc1 [Compound 24]",
    "OBSERVATION_TYPE": "inhibition at 0.5 µM",
    "VALUE_QUALIFIER": "=",
    "REPORTED_RESULT": 1.5
  },
  {
    "COMPOUND": "N#CCc1ccc(Nc2ncnc3ccc(-c4ccccc4C=O)cc23)cc1 [Compound 8]",
    "OBSERVATION_TYPE": "inhibition at 0.5 µM",
    "VALUE_QUALIFIER": "=",
    "REPORTED_RESULT": 1.3
  },
  {
    "COMPOUND": "N#CCc1ccc(Nc2ncnc3ccc(-c4ccc(-c5ccccc5)cc4)cc23)cc1 [Compound 16]",
    "OBSERVATION_TYPE": "inhibition at 0.5 µM",
    "VALUE_QUALIFIER": "<",
    "REPORTED_RESULT": 0
  },
  {
    "COMPOUND": "N#CCc1ccc(Nc2ncnc3ccc(-c4ccc5c(c4)OCCO5)cc23)cc1 [Compound 20]",
    "OBSERVATION_TYPE": "inhibition at 0.5 µM",
    "VALUE_QUALIFIER": "=",
    "REPORTED_RESULT": 33
  },
  {
    "COMPOUND": "N#CCc1ccc(Nc2ncnc3ccc(-c4ccc5c(c4)OCO5)cc23)cc1 [Compound 21]",
    "OBSERVATION_TYPE": "inhibition at 0.5 µM",
    "VALUE_QUALIFIER": ">",
    "REPORTED_RESULT": 40
  },
  {
    "COMPOUND": "N#CCc1ccc(Nc2ncnc3ccc(-c4cccc5c4sc4ccccc45)cc23)cc1 [Compound 25]",
    "OBSERVATION_TYPE": "inhibition at 0.5 µM",
    "VALUE_QUALIFIER": "<",
    "REPORTED_RESULT": 0
  },
  {
    "COMPOUND": "CC(=O)Nc1cccc(-c2ccc3ncnc(Nc4ccc(CC#N)cc4)c3c2)c1 [Compound 15]",
    "OBSERVATION_TYPE": "inhibition at 0.5 µM",
    "VALUE_QUALIFIER": "=",
    "REPORTED_RESULT": 36.8
  },
  {
    "COMPOUND": "N#CCc1ccc(Nc2ncnc3ccc(-c4cccc([N+](=O)[O-])c4)cc23)cc1 [Compound 11]",
    "OBSERVATION_TYPE": "inhibition at 0.5 µM",
    "VALUE_QUALIFIER": "=",
    "REPORTED_RESULT": 38.1
  },
  {
    "COMPOUND": "N#CCc1ccc(Nc2ncnc3ccc(-c4ccc5ccccc5c4)cc23)cc1 [Compound 19]",
    "OBSERVATION_TYPE": "inhibition at 0.5 µM",
    "VALUE_QUALIFIER": "=",
    "REPORTED_RESULT": 8.2
  },
  {
    "COMPOUND": "N#CCc1ccc(Nc2ncnc3ccc(-c4ccccc4)cc23)cc1 [Compound 6]",
    "OBSERVATION_TYPE": "inhibition at 0.5 µM",
    "VALUE_QUALIFIER": "=",
    "REPORTED_RESULT": 16.4
  },
  {
    "COMPOUND": "N#CCc1ccc(Nc2ncnc3ccc(-c4ccc5[nH]ccc5c4)cc23)cc1 [Compound 26]",
    "OBSERVATION_TYPE": "inhibition at 0.5 µM",
    "VALUE_QUALIFIER": ">",
    "REPORTED_RESULT": 40
  }
]

---

Overview of reported Fold-selectivity for PI3K-α with respect to -β across a group of molecules:
Target: PI3K-β (Homo sapiens)
Sequence (P42338 whole entry, species assumed, one chain of several): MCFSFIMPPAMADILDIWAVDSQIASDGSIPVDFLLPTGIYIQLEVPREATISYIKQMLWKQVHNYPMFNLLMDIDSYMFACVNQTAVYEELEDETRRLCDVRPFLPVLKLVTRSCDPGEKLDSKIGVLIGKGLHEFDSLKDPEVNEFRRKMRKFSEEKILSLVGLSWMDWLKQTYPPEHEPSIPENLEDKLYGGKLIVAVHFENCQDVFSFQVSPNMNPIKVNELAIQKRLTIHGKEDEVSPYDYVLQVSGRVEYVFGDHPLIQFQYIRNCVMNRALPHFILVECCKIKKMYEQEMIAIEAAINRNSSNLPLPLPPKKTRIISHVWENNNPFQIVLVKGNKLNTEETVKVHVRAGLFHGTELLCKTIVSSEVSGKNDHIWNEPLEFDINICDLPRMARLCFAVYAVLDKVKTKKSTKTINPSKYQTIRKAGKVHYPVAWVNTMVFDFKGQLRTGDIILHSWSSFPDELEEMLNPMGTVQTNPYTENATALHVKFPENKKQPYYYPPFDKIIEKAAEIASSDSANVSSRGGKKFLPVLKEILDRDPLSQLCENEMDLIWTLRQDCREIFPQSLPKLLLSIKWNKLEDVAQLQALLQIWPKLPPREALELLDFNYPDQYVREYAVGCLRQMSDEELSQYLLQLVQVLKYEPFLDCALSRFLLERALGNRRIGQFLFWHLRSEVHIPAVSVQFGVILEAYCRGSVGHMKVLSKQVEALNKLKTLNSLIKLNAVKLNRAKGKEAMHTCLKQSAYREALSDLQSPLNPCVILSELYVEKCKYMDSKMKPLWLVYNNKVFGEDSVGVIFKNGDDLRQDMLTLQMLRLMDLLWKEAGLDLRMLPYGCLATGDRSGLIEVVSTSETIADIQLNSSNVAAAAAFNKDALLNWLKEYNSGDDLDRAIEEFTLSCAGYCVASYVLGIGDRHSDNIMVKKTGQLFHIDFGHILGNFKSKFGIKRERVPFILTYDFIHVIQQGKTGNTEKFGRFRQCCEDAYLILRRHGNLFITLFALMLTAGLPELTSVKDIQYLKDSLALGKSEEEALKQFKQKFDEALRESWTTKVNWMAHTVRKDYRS
Test: PI3K-β assay (ADP-Glo)
Assay type: biochemical
Conditions: α versus β isoform
OBSERVATION_TYPE: Fold-selectivity for PI3K-α with respect to -β

[
  {
    "MOLECULE": "N#CCc1ccc(Nc2ncnc3ccc(-c4cncc5ccccc45)cc23)cc1 [Compound 29]",
    "REPORTED_RESULT": ">133 fold"
  },
  {
    "MOLECULE": "N#CCc1ccc(Nc2ncnc3ccc(-c4ccncc4)cc23)cc1 [Compound 28]",
    "REPORTED_RESULT": ">14.2 fold"
  },
  {
    "MOLECULE": "N#CCc1ccc(Nc2ncnc3ccc(-c4cccc(O)c4)cc23)cc1 [Compound 10]",
    "REPORTED_RESULT": "5.8 fold"
  },
  {
    "MOLECULE": "CC(=O)Nc1cccc(-c2ccc3ncnc(Nc4ccc(CC#N)cc4)c3c2)c1 [Compound 15]",
    "REPORTED_RESULT": ">21 fold"
  },
  {
    "MOLECULE": "N#CCc1ccc(Nc2ncnc3ccc(-c4ccc5c(c4)OCO5)cc23)cc1 [Compound 21]",
    "REPORTED_RESULT": ">31.1 fold"
  },
  {
    "MOLECULE": "N#CCc1ccc(Nc2ncnc3ccc(-c4cccc([N+](=O)[O-])c4)cc23)cc1 [Compound 11]",
    "REPORTED_RESULT": ">22.2 fold"
  },
  {
    "MOLECULE": "CC(=O)c1ccc(-c2ccc3ncnc(Nc4ccc(CC#N)cc4)c3c2)cc1 [Compound 9]",
    "REPORTED_RESULT": ">37 fold"
  },
  {
    "MOLECULE": "N#CCc1ccc(Nc2ncnc3ccc(-c4ccc5c(c4)OCCO5)cc23)cc1 [Compound 20]",
    "REPORTED_RESULT": ">29.2 fold"
  },
  {
    "MOLECULE": "C=Cc1ccc(-c2ccc3ncnc(Nc4ccc(CC#N)cc4)c3c2)cc1 [Compound 13]",
    "REPORTED_RESULT": "1 fold"
  },
  {
    "MOLECULE": "N#CCc1ccc(Nc2ncnc3ccc(-c4ccc5[nH]ccc5c4)cc23)cc1 [Compound 26]",
    "REPORTED_RESULT": ">49.7 fold"
  }
]
